Molecular target: UniProt O33336
Sequence (O33336 1-227): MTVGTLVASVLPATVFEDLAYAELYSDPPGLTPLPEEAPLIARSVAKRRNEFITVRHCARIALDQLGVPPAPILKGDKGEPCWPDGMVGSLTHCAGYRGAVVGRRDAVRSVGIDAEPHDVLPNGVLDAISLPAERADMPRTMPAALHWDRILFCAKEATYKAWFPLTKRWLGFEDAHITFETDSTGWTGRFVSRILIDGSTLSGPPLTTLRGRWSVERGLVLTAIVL
Measured Endpoint: Kd
The reply must contain the numeric value and, after it, the unit.

Task item: Recorded Kd for "Cc1nc2ccc(CN(C)c3ccc(C(=O)N[C@@H](CCC(=O)O)C(=O)O)s3)cc2c(=O)[nH]1" with UniProt O33336, please?
Reply: 290 nM

====

biological target: PptT (Mycobacterium tuberculosis, UniProt O33336); experiment: BpsA assay of PptT activity with native CoA; type: biochemical
Measured Endpoint: pIC50
Remember the convention: pIC50 equals -log10 of concentration in molar.

Task item: Recorded pIC50 for "Cc1nc2ccc(CN(C)c3ccc(C(=O)N[C@@H](CCC(=O)O)C(=O)O)s3)cc2c(=O)[nH]1" with PptT (Mycobacterium tuberculosis, UniProt O33336), please?
Reply: 6.60
